- assay.target: human OX1 receptors (Homo sapiens, UniProt O43613)
- Construct: expressed in transfected cells; host or cells: CHO cells
- Sequence (O43613 1-425): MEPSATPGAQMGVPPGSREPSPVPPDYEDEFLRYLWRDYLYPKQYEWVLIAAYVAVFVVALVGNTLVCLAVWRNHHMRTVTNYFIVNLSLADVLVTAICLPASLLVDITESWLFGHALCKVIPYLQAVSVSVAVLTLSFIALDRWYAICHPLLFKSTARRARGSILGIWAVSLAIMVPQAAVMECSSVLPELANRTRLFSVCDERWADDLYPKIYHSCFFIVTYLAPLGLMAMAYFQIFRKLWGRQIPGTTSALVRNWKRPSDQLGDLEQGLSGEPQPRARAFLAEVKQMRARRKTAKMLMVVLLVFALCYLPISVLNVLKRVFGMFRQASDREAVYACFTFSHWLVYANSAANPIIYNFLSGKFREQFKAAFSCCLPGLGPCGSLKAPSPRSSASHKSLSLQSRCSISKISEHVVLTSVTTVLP
- protocol.notes: antagonistic activity against human OX1 receptor, [Ca2+]i fluorimetry in transfected CHO cells
- Format: cell-based
- condition.context: CHO cells transfected with human recombinant OX1; activated with orexin-A 3 nM; pKb = co-logarithm of apparent dissociation constant (modified Cheng Prusoff)
property.measured: Kb (nM)
# number only, unit nM dropped from output

Solved cases below.
{"compound": "Cc1ccc(-n2nccn2)c(C(=O)N2CCC(F)(F)CC2CNc2nc(C)cc(C)n2)c1 (single isomer, unassigned; isomer a)", "assay.target": "human OX1 receptors (Homo sapiens, UniProt O43613)", "Kb (nM)": 2.51}
{"compound": "O=C(c1ccccc1OCc1ccccc1)N1CCC(F)(F)CC1CNc1ccc(Cl)cn1 (racemic)", "assay.target": "human OX1 receptors (Homo sapiens, UniProt O43613)", "Kb (nM)": 5.01}
{"compound": "Cc1ccc(-n2nccn2)c(C(=O)N2CCC(F)(F)CC2CNc2ccc(Cl)cn2)n1 (single isomer, unassigned; isomer b) [Compound 9]", "assay.target": "human OX1 receptors (Homo sapiens, UniProt O43613)", "Kb (nM)": 15.8}
{"compound": "Cc1ccc(-c2ccccc2)c(C(=O)N2CCC(F)(F)CC2CNc2ncc(C(F)(F)F)cc2F)n1 (racemic)", "assay.target": "human OX1 receptors (Homo sapiens, UniProt O43613)", "Kb (nM)": 3.98}

Please fill in: Kb reported for O=C(c1ccncc1-c1ncccn1)N1CCC(F)(F)CC1CNc1ccc(Cl)cn1 (racemic) = 15.8

Please fill in: Kb reported for Cc1ccc(OCC2CC2)c(C(=O)N2CCC(F)(F)CC2CNc2ccc(C(F)(F)F)cn2)n1 (racemic) = 3.98

Please fill in: Kb reported for Cc1ccc(OCC2CC2)c(C(=O)N2CCC(F)(F)C[C@H]2CNc2ccc(C(F)(F)F)cn2)n1 = 15.8

###

- assay.target: human OX2 receptors (Homo sapiens)
- Construct: expressed in transfected cells; host or cells: HEK-293 cells
- Sequence (O43614 whole entry): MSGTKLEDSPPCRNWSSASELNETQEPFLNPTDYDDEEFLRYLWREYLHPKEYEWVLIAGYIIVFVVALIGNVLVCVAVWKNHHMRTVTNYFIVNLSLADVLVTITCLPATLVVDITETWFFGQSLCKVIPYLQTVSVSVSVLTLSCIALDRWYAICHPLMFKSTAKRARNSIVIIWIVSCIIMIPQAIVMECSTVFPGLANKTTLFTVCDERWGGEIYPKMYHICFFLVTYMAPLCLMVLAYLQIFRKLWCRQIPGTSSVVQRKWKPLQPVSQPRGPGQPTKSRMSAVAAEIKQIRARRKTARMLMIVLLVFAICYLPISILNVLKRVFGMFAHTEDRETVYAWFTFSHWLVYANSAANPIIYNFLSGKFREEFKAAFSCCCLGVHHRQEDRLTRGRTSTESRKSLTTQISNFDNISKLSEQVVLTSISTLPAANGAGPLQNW
- protocol.notes: antagonistic activity against human OX2 receptor, [Ca2+]i fluorimetry in transfected HEK-293 cells
- Assay type: cell-based
- condition.context: read-out: PKb OX2 (converted)
property.measured: Kb (µM)
# number only, unit µM dropped from output

Solved cases below.
{"compound": "Cc1ccc(OCc2ccccc2)c(C(=O)N2CCC(F)(F)CC2CNc2ccc(C(F)(F)F)cn2)n1 (racemic) [Compound 47]", "unit.info": "µM", "Kb": 10}
{"compound": "Cc1ccc(-n2nccn2)c(C(=O)N2CCC(F)(F)CC2CNc2nc(C)cc(C)n2)c1 (single isomer, unassigned; isomer a) [Compound 4]", "unit.info": "µM", "Kb": 0.2}

Please fill in: Kb reported for N#Cc1ccc(-c2ncccn2)c(C(=O)N2CCC(F)(F)CC2CNc2ccc(Cl)cn2)c1 (racemic) [Compound 27] = 10

Please fill in: Kb reported for CN(C)c1ccc(-c2ccccc2)c(C(=O)N2CCC(F)(F)CC2CNc2ccc(Cl)cn2)c1 (racemic) [Compound 18] = 1

Please fill in: Kb reported for Cc1ccc(-c2ccccc2)c(C(=O)N2CCC(F)(F)CC2CNc2ccc(C(F)(F)F)cn2)n1 (racemic) [Compound 36] = 10

Please fill in: Kb reported for O=C(c1nccc2ccccc12)N1CCC(F)(F)CC1CNc1ccc(C(F)(F)F)cn1 (single isomer, unassigned; isomer a) [Compound 41] = 10

Please fill in: Kb reported for O=C(c1nccc2ccccc12)N1CCC(F)(F)CC1CNc1ccc(Cl)cn1 (single isomer, unassigned; isomer b) [Compound 24] = 10

Please fill in: Kb reported for Cc1ccc(-c2ncccn2)c(C(=O)N2CCC(F)(F)CC2CNc2ccc(C(F)(F)F)cn2)n1 (single isomer, unassigned; isomer a) [Compound 20] = 0.316

###

- assay.target: human OX1 receptors (Homo sapiens, UniProt O43613)
- Construct: expressed in transfected cells; host or cells: CHO cells
- protocol.notes: antagonistic activity against human OX1 receptor, [Ca2+]i fluorimetry in transfected CHO cells
- Type: cell-based
- condition.context: CHO cells transfected with human recombinant OX1; activated with orexin-A 3 nM; pKb = co-logarithm of apparent dissociation constant (modified Cheng Prusoff)
Recorded Kb, one value per entry.
# number only, unit nM dropped from output

Solved cases below.
{"molecule": "O=C(c1nccc2ccccc12)N1CCC(F)(F)CC1CNc1ccc(Cl)cn1 (single isomer, unassigned; isomer a) [Compound 23]", "Kb, nM": 79.4}
{"molecule": "Cc1ccc(-c2ccccc2)c(C(=O)N2CCC(F)(F)CC2CNc2ccc(C(F)(F)F)cn2)n1 (racemic) [Compound 36]", "Kb, nM": 3.16}
{"molecule": "Cc1nc(C(=O)N2CCC(F)(F)CC2CNc2ccc(Cl)cn2)c(-c2ccccc2)s1 (racemic) [Compound 1]", "Kb, nM": 10}
{"molecule": "Cc1nc(C(=O)N2CCC(F)(F)CC2CNc2ccc(Cl)cn2)c(-c2ccccc2)s1 (single isomer, unassigned; isomer a) [Compound 2]", "Kb, nM": 2}
{"molecule": "Cc1ccc(-c2ccccc2)c(C(=O)N2CCC(F)(F)CC2CNc2ccc(C(F)(F)F)cn2)n1 (single isomer, unassigned; isomer a) [Compound 37]", "Kb, nM": 200}

Entry COc1ccc(OC)c(C(=O)N2CCC(F)(F)CC2CNc2ccc(Cl)cn2)c1 (racemic) , human OX1 receptors (Homo sapiens, UniProt O43613) data, Kb value: 7.94

Entry O=C(c1cc(Cl)ccc1-c1ncccn1)N1CCC(F)(F)CC1CNc1ccc(Cl)cn1 (racemic) , human OX1 receptors (Homo sapiens, UniProt O43613) data, Kb value: 5.01

Entry Cc1ccc(-c2ccccc2)c(C(=O)N2CCC(F)(F)CC2CNc2cnc(C(F)(F)F)cn2)n1 (racemic) , human OX1 receptors (Homo sapiens, UniProt O43613) data, Kb value: 3.16

Entry O=C(c1nccc2ccccc12)N1CCC(F)(F)CC1CNc1ccc(Cl)cn1 (single isomer, unassigned; isomer b) [Compound 24] , human OX1 receptors (Homo sapiens, UniProt O43613) data, Kb value: 1

Entry Cc1ccc(OCc2ccccc2)c(C(=O)N2CCC(F)(F)CC2CNc2ccc(C(F)(F)F)cn2)n1 (racemic) , human OX1 receptors (Homo sapiens, UniProt O43613) data, Kb value: 12.6

Entry CN(C)c1ccc(-c2ccccc2)c(C(=O)N2CCC(F)(F)CC2CNc2ccc(Cl)cn2)c1 (racemic) , human OX1 receptors (Homo sapiens, UniProt O43613) data, Kb value: 31.6

Entry Cc1ccc(-c2cccnc2)c(C(=O)N2CCC(F)(F)CC2CNc2ccc(C(F)(F)F)cn2)n1 (racemic) , human OX1 receptors (Homo sapiens, UniProt O43613) data, Kb value: 5.01

Entry Cc1ccc(-c2ccccn2)c(C(=O)N2CCC(F)(F)CC2CNc2ccc(C(F)(F)F)cn2)n1 (racemic) , human OX1 receptors (Homo sapiens, UniProt O43613) data, Kb value: 15.8

###

- assay.target: human OX1 receptors (Homo sapiens, UniProt O43613)
- Construct: expressed in transfected cells; host or cells: CHO cells
- Sequence (O43613 1-425): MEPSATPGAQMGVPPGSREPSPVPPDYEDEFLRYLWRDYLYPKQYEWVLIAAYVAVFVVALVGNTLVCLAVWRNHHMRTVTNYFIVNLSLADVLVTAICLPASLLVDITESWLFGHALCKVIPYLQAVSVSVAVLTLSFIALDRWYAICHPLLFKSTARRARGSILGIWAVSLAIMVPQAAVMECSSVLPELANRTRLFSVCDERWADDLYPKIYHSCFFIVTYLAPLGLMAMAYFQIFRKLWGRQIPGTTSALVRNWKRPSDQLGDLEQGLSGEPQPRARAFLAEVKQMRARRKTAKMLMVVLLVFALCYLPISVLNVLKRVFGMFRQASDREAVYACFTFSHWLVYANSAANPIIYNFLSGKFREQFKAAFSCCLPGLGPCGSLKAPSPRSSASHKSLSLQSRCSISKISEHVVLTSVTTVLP
- protocol.notes: antagonistic activity against human OX1 receptor, [Ca2+]i fluorimetry in transfected CHO cells
- Format: cell-based
- condition.context: CHO cells transfected with human recombinant OX1; activated with orexin-A 3 nM; pKb = co-logarithm of apparent dissociation constant (modified Cheng Prusoff)
Recorded Kb, one value per entry.
# number only, unit nM dropped from output

{"molecule": "O=C(c1nccc2ccccc12)N1CCC(F)(F)CC1CNc1ncc(C(F)(F)F)cc1F (racemic)", "Kb [nM]": 2}
{"molecule": "O=C(c1ccccc1OC1CCCC1)N1CCC(F)(F)CC1CNc1ccc(Cl)cn1 (racemic)", "Kb [nM]": 100}

Please fill in: Kb reported for Cc1ccc(-c2ncccn2)c(C(=O)N2CCC(F)(F)CC2CNc2ncc(C(F)(F)F)cc2F)n1 (racemic) [Compound 31] = 3.98

Please fill in: Kb reported for O=C(c1nccc2ccccc12)N1CCC(F)(F)CC1CNc1ccc(C(F)(F)F)cn1 (racemic) [Compound 34] = 2.51

Please fill in: Kb reported for O=C(c1ccnc2ccccc12)N1CCC(F)(F)CC1CNc1ccc(C(F)(F)F)cn1 (racemic) = 31.6

Please fill in: Kb reported for CCOc1ccccc1C(=O)N1CCC(F)(F)CC1CNc1ccc(Cl)cn1 (racemic) = 7.94

Please fill in: Kb reported for Cc1ccc(-n2nccn2)c(C(=O)N2CCC(F)(F)CC2CNc2ccc(C(F)(F)F)cn2)c1 (racemic) = 5.01

Please fill in: Kb reported for O=C(c1cccc2cccnc12)N1CCC(F)(F)CC1CNc1ccc(Cl)cn1 (racemic) [Compound 25] = 0.794

Please fill in: Kb reported for Cc1cnc(-c2ncccn2)c(C(=O)N2CCC(F)(F)CC2CNc2ccc(Cl)cn2)c1 (racemic) = 126

Please fill in: Kb reported for O=C(c1nc(C(F)(F)F)ccc1-c1ncccn1)N1CCC(F)(F)CC1CNc1ccc(C(F)(F)F)cn1 (single isomer, unassigned; isomer a) [Compound 40] = 63.1

Please fill in: Kb reported for O=C(c1cccc2cccnc12)N1CCC(F)(F)CC1CNc1ccc(Cl)cn1 (single isomer, unassigned; isomer a) [Compound 26] = 1.58

Please fill in: Kb reported for Cc1ccc(-c2ccncc2)c(C(=O)N2CCC(F)(F)CC2CNc2ccc(C(F)(F)F)cn2)n1 (racemic) = 39.8

Please fill in: Kb reported for Cc1ccc(-c2ncccn2)c(C(=O)N2CCC(F)(F)CC2CNc2ccc(C#N)cn2)n1 (racemic) = 15.8

Please fill in: Kb reported for Cc1ccc(-c2ncccn2)c(C(=O)N2CCC(F)(F)CC2CNc2ccc(Cl)cn2)c1 (single isomer, unassigned; isomer a) [Compound 7] = 2.51
